Where do the numbers come from? From PubChem BioAssay.

Listed here: items and their measured z-score.
Method description: S. cerevisiae growth modulation with rapamycin, primary screen, strain BY4716, OD600, 96 h (AID 1091); note: test concentration not given here
Test conditions: higher = more signal, called active from +8 up or from −8 down
// no unit string in output, number only

IN: // query z-score value for entry O=C1N(Cc2ccccc2)c2ccccc2[C@H]2OC(c3ccc(OCCCO)cc3)=N[C@@]12Cc1ccccc1
OUT: 6.52

IN: // query z-score value for entry CN(C)CCCNC(=O)[C@@]1(Cc2ccccc2I)c2ccccc2C(=O)N(Cc2ccccc2)[C@H]1c1ccc(CO)cc1
OUT: -2.33

IN: // query z-score value for entry O=C1O[C@@H](c2ccccc2)[C@@H](c2ccccc2)N2[C@@H](c3ccc(OCCO)cc3)[C@]3(C(=O)Nc4ccc(C#CCCO)cc43)[C@@H](C(=O)Nc3nc4ccccc4s3)[C@H]12
OUT: 1.72

IN: // query z-score value for entry C=CCC(OC(C)=O)[C@@H]1[C@@H](N(Cc2cccc3ccccc23)C(=O)c2ccc(C)cc2)c2cc(OCCCO)ccc2N1C(=O)c1ccc2ccccc2n1 (stereo not given in full)
OUT: -0.6

IN: // query z-score value for entry CCOC(=O)C1=C[C@@H](C(C)(C)C)N(S(=O)(=O)c2ccc(C)cc2)[C@H]1c1ccccc1Cl
OUT: 2.15
